B1: Osa-1-4 twister ribozyme (parent)
chain: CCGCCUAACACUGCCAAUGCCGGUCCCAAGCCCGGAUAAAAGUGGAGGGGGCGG

- Variants of: B1
- method.notes: self-cleavage, relative activity (ratio to wild type); higher = more cleavage; co-transcriptional
property.name: self-cleavage

In [3]: df
Out[3]:
    variant_code  property_name  readout_number
 0     G47C U18A  self-cleavage            0.12
 1     A29G U24A  self-cleavage            0.07
 2      A28C A7C  self-cleavage            0.06
 3     A17U G45U  self-cleavage            0.18
 4     C14A C27A  self-cleavage            0.07
 5     C26U U43A  self-cleavage            0.32
 6     A38G G34C  self-cleavage            0.59
 7     C21U C31G  self-cleavage            0.14
 8     A10U C27U  self-cleavage            0.05
 9      C9G G19A  self-cleavage             0.2
10     C26A G45U  self-cleavage            0.02
